System: Hek293T
Assay: Primary qHTS to identify gynecologic anti-cancer compounds using libraries of approved drugs and bioactive compounds (AID 1345084); further: nearly all actives have a fitted effect of over 55% in size
Conditions: Gynecologic cancer cell panel viability, ATPlite luminescence, 48 h, control line for the selectivity index; series mostly up to 57.5 µM
Records with an inconclusive call do not appear. Activity calls are given as the source filed them. The call rests on the fitted dose curve; in most records, active means well fitted cell-killing curve with a large enough effect; inconclusive means small, poorly fitted or top-dose-only effect, or effect the other way; inactive means flat fitted curve, though single readings scatter.
Give one outcome, nothing more. List: y (active), n (inactive)

The examples below pair each entry with its known result.
{"Molecule": "Oc1ccccc1", "Classification": "n"}
{"Molecule": "CCOC(=O)NNc1nncc2ccccc12", "Classification": "n"}
{"Molecule": "CC1CC(=O)NN=C1c1ccc(NCC(C)(C)NCC(O)COc2cc(Cl)ccc2C#N)cc1 (configuration not stated)", "Classification": "n"}

Incoming: For "NS(=O)(=O)c1ccc(N2CCCCS2(=O)=O)cc1" , which call appears in the assay record?
Outgoing: n

Incoming: Again, but for CO[C@@H]1[C@@H](OC)[C@H](C)[C@@](O)(CC(=O)O)O[C@H]1[C@H](C)[C@H]1O[C@@]2(CC[C@@](C)([C@H]3CC[C@@](C)([C@@H]4O[C@@H]([C@H]5O[C@](C)(O)[C@H](C)C[C@@H]5C)C[C@@H]4OC4C[C@H](OC)[C@@H](OC)[C@H](C)O4)O3)O2)C[C@H](O)[C@H]1C (some centres not stated)
Outgoing: y

Incoming: Would you mind doing "CCCCOCCOC(=O)c1cccnc1" as well?
Outgoing: n

Incoming: Same thing, different molecule: "CC(C)C(C)(C)C(C)(C)C(C)(C)S"
Outgoing: n

Incoming: Try "C#Cc1ccc(-c2ccccc2F)cc1" next.
Outgoing: n
